Source: patent US20260274975A1

target: Anti-Müllerian hormone Receptor 2 (AMH-R2), protein target applied to the peptide microarray (UniProt Q16671); test: peptide microarray; protein target detected by anti-GST and Alexa Fluor 647 antibody, scanned signal
Non-standard residues stand in square brackets, D forms with d. No end group written: not given here.
observation.type: Average

[dR][dW]G[dA]SN[dK]HFAN[dA]NQ[dR][dA][dL] [NegAMHR2BP (SEQ ID NO: 4)] ... 65500
G[dL]Q[dW]SFANGQ[dW][dR]G[dA][dL]SG [AMH receptor binding peptide SEQ ID NO: 12] ... 63800
NG[dR]SQAHN[dL][dR][dK][dA]GV[dA][dL]S [AMH receptor binding peptide SEQ ID NO: 15] ... 61500
